Ref: patent US20230242651A1

Known kon of a selection of binders
# system_name: T1, human interleukin-23 receptor (IL23R) (human, UniProt Q5VWK5 24-355, limits assumed)
# T1 construct: also called human IL23R
# T1 sequence (looked up): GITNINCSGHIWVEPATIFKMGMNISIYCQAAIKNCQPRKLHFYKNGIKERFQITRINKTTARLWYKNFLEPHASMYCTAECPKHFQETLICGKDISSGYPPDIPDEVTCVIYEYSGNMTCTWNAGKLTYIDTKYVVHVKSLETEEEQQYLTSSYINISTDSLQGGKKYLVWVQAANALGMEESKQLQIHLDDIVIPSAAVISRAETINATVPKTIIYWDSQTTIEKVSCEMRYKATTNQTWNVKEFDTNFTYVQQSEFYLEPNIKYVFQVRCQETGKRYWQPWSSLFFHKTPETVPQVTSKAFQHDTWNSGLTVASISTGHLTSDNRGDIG
# method_notes: SPR, scFv
Just the number in M⁻¹ s⁻¹, nothing appended.

- binder: "Vκ1/VH3 consensus λ-capped, human IL23R specific scFv (scFv, scFv VL-linker-VH, made in E. coli; also called Vκ1VH3 capped) scFv: DIQMTQSPSSLSASVGDRVTITCQASENIYSFLAWYQQKPGKAPKLLIYSASKLAAGVPSRFSGSGSGTDFTLTISSLQPEDFATYYCQQTNRYSNPDIYNVFGGGTKLTVLGGGGGSGGGGSGGGGSGGGGSEVQLVESGGGLVQPGGSLRLSCAASGIDFNSNYYMCWVRQAPGKGLEWVSCIYVGSHVNTYYANWAKGRFTISRDNSKNTLYLQMNSLRAEDTAVYYCATSGSSVLYFKFWGQGTLVTVSS"
  kon, M⁻¹ s⁻¹: "3.95e+06"

Entry Vκ1/VH3 consensus (uncapped), human IL23R specific scFv (scFv, scFv VL-linker-VH, made in E. coli; Vκ framework IV (uncapped, full consensus); also called Vκ1VH3 uncapped) scFv: DIQMTQSPSSLSASVGDRVTITCQASENIYSFLAWYQQKPGKAPKLLIYSASKLAAGVPSRFSGSGSGTDFTLTISSLQPEDFATYYCQQTNRYSNPDIYNVFGQGTKVEIKRGGGGSGGGGSGGGGSGGGGSEVQLVESGGGLVQPGGSLRLSCAASGIDFNSNYYMCWVRQAPGKGLEWVSCIYVGSHVNTYYANWAKGRFTISRDNSKNTLYLQMNSLRAEDTAVYYCATSGSSVLYFKFWGQGTLVTVSS — recorded kon = 1.52e+06
